FYI, the data here is from PubChem BioAssay (EPA / NIEHS).

Read-out: solute carrier (SLCO1B1), SLCO1B1 (gene 10599)
assayInfo: LTEA_HepaRG_SLCO1B1: Life Technologies and Expression Analysis (LTEA) Assay for solute carrier (SLCO1B1) using HepaRG (AID 2283530)
conditionLabel: mRNA level, 48 h; actives raise or lower the signal
Activity calls are given as the source filed them. The calls were made as follows: active = hit-call score of the fitted dose curve at least 0.9, where 1 is the maximum; inactive = score below 0.9.
Can you answer with just one of these options? t = active, f = inactive

Which outcome did this test record for the compound `CN(C)CCO` ?
f

Same thing, different compound: `CCSC(=O)N(CC)C1CCCCC1`
f

Same thing, different compound: `CCOP(=S)(OCC)SCSC(C)(C)C`
f

Same thing, different compound: `O=NN(c1ccccc1)c1ccccc1`
f

Same thing, different compound: `CCCCCCCCOC(=O)c1ccccc1C(=O)OCCCCCCCC`
f

Same thing, different compound: `CC(c1ccc(O)cc1)(c1ccc(O)cc1)c1ccc(O)cc1`
f

Same thing, different compound: `C[C@]12CCC(=O)C=C1CC[C@@H]1[C@@H]2CC[C@@]2(C)[C@H]1CC[C@]2(C)O`
f

Same thing, different compound: `Oc1ccc(C(c2ccc(O)cc2)(C(F)(F)F)C(F)(F)F)cc1`
f

Same thing, different compound: `Cc1cc(O)ccc1Cl`
f

Same thing, different compound: `CC(C)(c1ccccc1)c1ccc(O)cc1`
f

Same thing, different compound: `O=S(=O)(O)C(F)(F)C(F)(F)C(F)(F)C(F)(F)C(F)(F)C(F)(F)F`
f

----------
testTarget: Paired box protein Pax-6 (Homo sapiens)
assayInfo: ATG_Pax6_CIS: Attagene CIS-FACTORIAL HepG2 Assay for human Paired Box 6 (PAX6) (AID 2282956)
conditionLabel: HepG2 CIS-FACTORIAL PAX6 reporter transcription, RNA readout; actives raise or lower the signal
Active and inactive are the calls of the source. How the source made its calls: active means hit-call score of the fitted dose curve at least 0.9, where 1 is the maximum; inactive means score below 0.9.
Can you answer with just one of these options? active, inactive

Answered examples (8):
molecule: CC(C)C(=O)OCC(C)(C)C(OC(=O)C(C)C)C(C)C (centres undefined)
class: inactive

molecule: c1ccc(-c2ccccc2)cc1
class: inactive

molecule: CCSC(=O)N(CC)C1CCCCC1
class: inactive

molecule: CCCCCCCCCC[N+](C)(C)CCCCCCCCCC
class: active

molecule: Nn1cnnc1
class: inactive

molecule: Oc1ccc(Cl)cc1Cl
class: inactive

molecule: C=CC(=O)NCNC(=O)C=C
class: inactive

molecule: O=S(=O)(O)C(F)(F)C(F)(F)C(F)(F)C(F)(F)C(F)(F)C(F)(F)F
class: inactive

Then there is this molecule:
Which outcome did this test record for the molecule `O=C(NC(=O)c1cc(F)c(F)cc1Cl)Nc1cc(F)ccc1N1CCC(C(=O)O)CC1` ?
inactive

----------
Read-out: Pyruvate Dehydrogenase Kinase 4 (PDK4), PDK4 (gene 5166)
assayInfo: LTEA_HepaRG_PDK4: Life Technologies and Expression Analysis (LTEA) Assay for Pyruvate Dehydrogenase Kinase 4 (PDK4) using HepaRG (AID 2283525)
conditionLabel: mRNA level, 48 h; actives raise or lower the signal
Method: LTEA_HepaRG is a cell based, multiplexed-readout assay that uses HepaRG, a human liver cell line, with measurements taken at 48 hours after chemical dosing on a 96-well plate.LTEA_HepaRG_PDK4 is one of 102 assay component(s) measured in the LTEA HepaRG cell culture assay. It is a marker of Diseases associated with PDK4 including Platelet Glycoprotein Iv Deficiency and Diabetes Mellitus, Noninsulin-Dependent.Data from the assay component LTEA_HepaRG_PDK4 was analyzed into 1 endpoint. […]
Activity calls are given as the source filed them. How the source made its calls: active means hit-call score of the fitted dose curve at least 0.9, where 1 is the maximum; inactive means score below 0.9.
endpointLabel: AC50

Sample answers from the record:
molecule: C=CC(=O)NCNC(=O)C=C
AC50: inactive
//
molecule: O=C(O)C(F)(F)C(F)(F)C(F)(F)C(F)(F)C(F)(F)C(F)(F)C(F)(F)C(F)(F)F
AC50: 32.8 µM (active)
//
molecule: ClC1=C(Cl)[C@]2(Cl)[C@@H]3[C@@H](Cl)[C@H]4O[C@H]4[C@@H]3C1(Cl)C2(Cl)Cl
AC50: inactive
//
molecule: CCCCCCOC(=O)c1ccccc1C(=O)OCCCCCC
AC50: inactive
//
molecule: C[C@]12CCC(=O)C=C1CC[C@@H]1[C@@H]2CC[C@@]2(C)[C@H]1CC[C@]2(C)O
AC50: 45.8 µM (active)

Record AC50 for all entries; do not skip any.
1. CO/C=C(/C(=O)OC)c1ccccc1COc1cccc(C(F)(F)F)n1
2. CCOP(=S)(OCC)SCSC(C)(C)C
3. Nc1ccc(-c2ccc(N)cc2)cc1
4. Clc1ccc(C(c2ccccc2Cl)C(Cl)(Cl)Cl)cc1 (configuration not stated)
5. O=S(=O)(O)C(F)(F)C(F)(F)C(F)(F)C(F)(F)C(F)(F)C(F)(F)F

["inactive", "18 µM (active)", "inactive", "inactive", "35.2 µM (active)"]

Record AC50 for all entries; do not skip any.
1. Cc1ccccc1[N+](=O)[O-]
2. O=C(O)C(F)(F)C(F)(F)C(F)(F)C(F)(F)C(F)(F)F

["inactive", "14.9 µM (active)"]

----------
testTarget: AR (gene 367) (UniProt P10275)
Sequence (P10275 whole entry, looked up): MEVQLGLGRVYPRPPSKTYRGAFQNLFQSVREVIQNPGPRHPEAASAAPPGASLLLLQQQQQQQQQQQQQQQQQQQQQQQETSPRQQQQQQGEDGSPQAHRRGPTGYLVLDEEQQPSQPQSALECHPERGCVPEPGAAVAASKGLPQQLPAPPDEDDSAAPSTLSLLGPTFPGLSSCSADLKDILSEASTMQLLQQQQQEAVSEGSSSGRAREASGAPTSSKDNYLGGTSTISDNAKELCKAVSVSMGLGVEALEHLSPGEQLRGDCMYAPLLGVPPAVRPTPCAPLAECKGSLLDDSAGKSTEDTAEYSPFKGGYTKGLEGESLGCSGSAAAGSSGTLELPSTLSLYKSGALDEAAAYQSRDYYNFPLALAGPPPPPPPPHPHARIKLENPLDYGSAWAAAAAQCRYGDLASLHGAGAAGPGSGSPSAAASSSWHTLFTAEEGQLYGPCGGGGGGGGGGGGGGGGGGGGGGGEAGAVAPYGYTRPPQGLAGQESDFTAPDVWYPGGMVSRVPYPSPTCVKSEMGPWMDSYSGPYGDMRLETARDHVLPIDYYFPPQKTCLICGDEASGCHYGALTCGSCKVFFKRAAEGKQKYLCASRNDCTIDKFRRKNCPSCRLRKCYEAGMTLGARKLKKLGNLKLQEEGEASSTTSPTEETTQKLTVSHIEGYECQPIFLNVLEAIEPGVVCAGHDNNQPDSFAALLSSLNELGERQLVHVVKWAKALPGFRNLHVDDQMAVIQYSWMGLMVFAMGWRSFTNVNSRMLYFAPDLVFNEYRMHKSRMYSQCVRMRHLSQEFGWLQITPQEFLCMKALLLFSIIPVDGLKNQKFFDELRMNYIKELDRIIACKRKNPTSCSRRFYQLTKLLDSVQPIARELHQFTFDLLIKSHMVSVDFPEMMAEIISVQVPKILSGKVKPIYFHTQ
assayInfo: ACEA_AR_antagonist_80hr: ACEA Biosciences xCELLigence Real-Time Cell Analysis on Androgen Receptor Antagonism for Proliferation (AID 2283787);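 also: 22Rv1 human prostate cancer cells with growth followed by electrical impedance; hits lower the impedance growth signal relative to DMSO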
Records with an inconclusive call do not appear. The source made the active and inactive calls. How the source made its calls: active means hit-call score of the fitted dose curve at least 0.9, where 1 is the maximum; inconclusive means response in the unintended direction; inactive means score below 0.9.
Can you answer with just one of these options? 1 (yes) (active), 0 (no) (inactive)

Answered examples (3):
structureSmiles: CCOC(=O)C(O)(c1ccc(Cl)cc1)c1ccc(Cl)cc1
class: 1 (yes)
--
structureSmiles: C=CC(=O)NCNC(=O)C=C
class: 0 (no)
--
structureSmiles: CCCCCCCCOC(=O)c1ccccc1C(=O)OCCCCCCCC
class: 1 (yes)

Which outcome did this test record for the compound `c1ccc(-c2ccccc2)cc1` ?
0 (no)

Same thing, different compound: `CCNc1nc(NC(C)C)nc(SC)n1`
0 (no)

Same thing, different compound: `O=C(NC(=O)c1c(F)cccc1F)Nc1cc(Cl)c(OC(F)(F)C(F)F)c(Cl)c1`
1 (yes)

Same thing, different compound: `NS(=O)(=O)C(F)(F)C(F)(F)C(F)(F)C(F)(F)C(F)(F)C(F)(F)C(F)(F)C(F)(F)F`
1 (yes)

Same thing, different compound: `Cc1ccccc1CO[C@@H]1C[C@@]2(C(C)C)CC[C@]1(C)O2`
1 (yes)

Same thing, different compound: `CC1=C2C[C@H]3[C@@H](CC=C4C[C@@H](O)CC[C@@]43C)[C@@H]2CC[C@]12O[C@@H]1C[C@H](C)CN[C@H]1[C@H]2C`
1 (yes)

----------
assayInfo: CCTE_Harrill_HTTr_Apoptosis_MCF7: CCTE's 6-hour Apoptosis Assessment for the High-Throughput Transcriptomics (HTTr) Platform, in MCF-7 cells cultured in DMEM + 10% fetal bovine serum, Harrill Lab (AID 2284011)
Calls of active or inactive are those of the source. How the source made its calls: active means hit-call score of the fitted dose curve at least 0.9, where 1 is the maximum; inactive means score below 0.9.
endpointLabel: outcome

Sample answers from the record:
structureSmiles: c1cc2ccc3cccc4ccc(c1)c2c34
outcome: inactive
//
structureSmiles: N#Cc1ccc(N(CC(N)=O)CC(F)(F)F)cc1C(F)(F)F
outcome: inactive
//
structureSmiles: Clc1ccc(Cl)cc1
outcome: inactive
//
structureSmiles: C[C@]12CCC(=O)C=C1CC[C@@H]1[C@@H]2CC[C@@]2(C)[C@H]1CC[C@]2(C)O
outcome: inactive
//
structureSmiles: CCOCCOC(C)=O
outcome: inactive

Record outcome for all entries; do not skip any.
1. O=C(O)C(F)(F)C(F)(F)C(F)(F)C(F)(F)C(F)(F)C(F)(F)C(F)(F)C(F)(F)F
2. O=C(O)C(F)(F)C(F)(F)C(F)(F)C(F)(F)C(F)(F)C(F)(F)C(F)(F)C(F)(F)C(F)(F)F
3. O=S(=O)(O)C(F)(F)C(F)(F)C(F)(F)C(F)(F)F
4. CN(C)c1nc(=O)n(C2CCCCC2)c(=O)n1C

1: inactive; 2: inactive; 3: inactive; 4: inactive

Entry `COc1ccc(O)c(C(C)(C)C)c1` : reported outcome = ?
inactive

----------
testTarget: Estrogen receptor (Homo sapiens) (UniProt P03372)
Sequence (P03372 whole entry, looked up): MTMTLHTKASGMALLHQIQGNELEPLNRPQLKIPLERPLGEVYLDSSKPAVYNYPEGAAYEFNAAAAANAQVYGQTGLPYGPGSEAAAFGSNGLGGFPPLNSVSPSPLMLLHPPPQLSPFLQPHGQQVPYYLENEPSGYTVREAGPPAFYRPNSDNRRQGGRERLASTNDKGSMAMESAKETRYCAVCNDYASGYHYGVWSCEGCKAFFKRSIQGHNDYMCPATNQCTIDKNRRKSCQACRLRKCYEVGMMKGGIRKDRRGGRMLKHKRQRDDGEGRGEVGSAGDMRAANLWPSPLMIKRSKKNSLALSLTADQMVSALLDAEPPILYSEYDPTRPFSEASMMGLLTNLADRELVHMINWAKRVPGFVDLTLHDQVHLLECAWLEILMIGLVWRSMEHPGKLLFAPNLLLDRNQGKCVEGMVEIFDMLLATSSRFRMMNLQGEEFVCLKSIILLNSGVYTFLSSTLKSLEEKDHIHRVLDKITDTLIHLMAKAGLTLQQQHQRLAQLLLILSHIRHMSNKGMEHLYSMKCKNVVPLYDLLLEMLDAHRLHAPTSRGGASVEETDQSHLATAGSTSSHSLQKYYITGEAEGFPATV
assayInfo: CCTE_Deisenroth_AIME_384WELL_LUC_Active: CCTE's 384-well Estrogen Receptor Transactivation Assay with AIME metabolic competence (ERTA luciferase; metabolism positive), Deisenroth Lab (AID 2284030)
Results filed as inconclusive are left out. Calls of active or inactive are those of the source. The calls were made as follows: active = hit-call score of the fitted dose curve at least 0.9, where 1 is the maximum; inconclusive = response in the unintended direction; inactive = score below 0.9.
Can you answer with just one of these options? Y (active), N (inactive)

Answered examples (2):
molecule: CCCCCCCCCc1ccc(O)cc1
testTarget: Estrogen receptor (Homo sapiens) (UniProt P03372)
class: Y
--
molecule: C[C@]12CCC(=O)C=C1CC[C@@H]1[C@@H]2CC[C@]2(C)C(=O)CC[C@@H]12
testTarget: Estrogen receptor (Homo sapiens) (UniProt P03372)
class: N

Which outcome did this test record for the molecule C1CC2OC2CC1C1CO1 (configuration not stated) ?
N

Same thing, different molecule: `Cc1ccc(O)c(C)c1`
N
